From: patent US20180298024A1

# run-description: Pharmacokinetic profile in mice (plasma, LC-MS/MS)
# conditions-used: PO 10 mg/kg, CD-1 mice
observed-property: ½ life (h)
Report the value in h with no unit label.

Could you tell me which ½ life is on file for C[C@]12CC=C3C=C4CC[C@@H](N5C[C@H](O)[C@@H](O)C5)C[C@]45CC[C@]3(O5)[C@@H]1CC[C@@H]2c1ccc2ccncc2c1 ?
4.25

// lookup ½ life for C[C@]12CC=C3C=C4CC[C@@H](N5CC(N)C5)C[C@]45CC[C@]3(O5)[C@@H]1CC[C@@H]2c1ccc2ccncc2c1
6.68

# get_value(readout='½ life', item= C[C@]12CC=C3C=C4CC[C@@H](N5CC[C@@H](N)C5)C[C@]45CC[C@]3(O5)[C@@H]1CC[C@@H]2c1ccc2ccncc2c1 )
9.55

Name the reported ½ life value associated with the compound C[C@]12CC=C3C=C4CC[C@@H](O)C[C@]45CC[C@]3(O5)[C@@H]1CC[C@@H]2c1ccc2ccncc2c1
3.04

---

For each entry below, report its Efficacy Rank Day 15 value.
# System: Human AML cell line MV4;11
# run-description: MV4;11 disseminated leukemia model (bioluminescence)
# Type: in vivo, NSG mice
# conditions-used: each compound at its own dose/schedule; data from 3 separate studies

Find the recorded Efficacy Rank Day 15 belonging to CN(C)[C@H]1C[C@@]23CC[C@@]4(O2)C(=CC[C@]2(C)[C@@H](c5ccc6ccncc6c5)CC[C@H]24)C=C3[C@@H](O)[C@@H]1O and report it.
4

Record request: Efficacy Rank Day 15 value, item C[C@]12CC=C3C=C4CC[C@@H](N5CCC5)C[C@]45CCC3(O5)[C@@H]1CC[C@@H]2c1ccc2ccncc2c1
6

What value of Efficacy Rank Day 15 has been reported for the following compound? C[C@]12CC=C3C=C4CC[C@@H](O)C[C@]45CC[C@]3(O5)[C@@H]1CC[C@@H]2c1ccc2ccncc2c1
5

Quick one: Efficacy Rank Day 15 for C[C@]12CC=C3C=C4CC[C@@H](N5CC(N)C5)C[C@]45CC[C@]3(O5)[C@@H]1CC[C@@H]2c1ccc2ccncc2c1 ?
2

May I ask what Efficacy Rank Day 15 has been recorded for C[C@]12CC=C3C=C4CC[C@@H](N5CC[C@@H](N)C5)C[C@]45CC[C@]3(O5)[C@@H]1CC[C@@H]2c1ccc2ccncc2c1 ?
3

Any idea what Efficacy Rank Day 15 was measured for C[C@]12CC=C3C=C4CC[C@@H](N5C[C@H](O)[C@@H](O)C5)C[C@]45CC[C@]3(O5)[C@@H]1CC[C@@H]2c1ccc2ccncc2c1 ?
1

---

# tested-on: hERG potassium channel (Homo sapiens)
# Sequence (Q12809 whole entry): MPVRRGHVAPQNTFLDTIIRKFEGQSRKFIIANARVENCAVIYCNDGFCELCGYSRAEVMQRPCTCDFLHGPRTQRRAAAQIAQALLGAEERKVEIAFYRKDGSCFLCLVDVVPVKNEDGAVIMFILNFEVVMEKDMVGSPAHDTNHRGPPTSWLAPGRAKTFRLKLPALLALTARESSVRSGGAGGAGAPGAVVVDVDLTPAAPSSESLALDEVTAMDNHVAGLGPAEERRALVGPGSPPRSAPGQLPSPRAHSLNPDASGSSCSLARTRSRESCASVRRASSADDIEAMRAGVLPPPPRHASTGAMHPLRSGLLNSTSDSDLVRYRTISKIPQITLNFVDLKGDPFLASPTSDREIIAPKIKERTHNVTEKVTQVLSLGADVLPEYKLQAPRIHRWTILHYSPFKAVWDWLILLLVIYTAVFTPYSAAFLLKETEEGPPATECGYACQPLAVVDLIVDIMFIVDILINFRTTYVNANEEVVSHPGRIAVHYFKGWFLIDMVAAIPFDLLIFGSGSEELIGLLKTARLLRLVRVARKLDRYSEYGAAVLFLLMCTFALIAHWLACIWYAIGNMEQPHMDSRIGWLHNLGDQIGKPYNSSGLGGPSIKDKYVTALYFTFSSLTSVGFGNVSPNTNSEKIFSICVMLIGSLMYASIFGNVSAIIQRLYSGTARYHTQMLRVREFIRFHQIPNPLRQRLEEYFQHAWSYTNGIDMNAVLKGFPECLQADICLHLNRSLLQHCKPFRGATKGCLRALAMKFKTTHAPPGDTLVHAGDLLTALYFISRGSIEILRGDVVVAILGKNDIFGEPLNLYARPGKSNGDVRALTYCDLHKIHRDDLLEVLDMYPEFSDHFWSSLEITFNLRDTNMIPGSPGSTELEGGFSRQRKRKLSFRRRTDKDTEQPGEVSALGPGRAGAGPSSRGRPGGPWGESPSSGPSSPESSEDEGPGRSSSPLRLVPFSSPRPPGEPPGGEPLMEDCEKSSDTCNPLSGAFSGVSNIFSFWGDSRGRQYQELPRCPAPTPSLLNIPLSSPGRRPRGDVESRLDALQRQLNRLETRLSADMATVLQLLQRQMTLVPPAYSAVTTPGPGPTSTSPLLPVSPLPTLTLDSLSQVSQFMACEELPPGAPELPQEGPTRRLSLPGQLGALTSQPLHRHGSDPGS
# run-description: in vitro
# conditions-used: human, Mean % hERG Inhibition
For each of the compounds below, state its inhibition at 1 µM.
Provide the reading as a plain figure in %.

Give the measured inhibition at 1 µM of C[C@]12CC=C3C=C4CC[C@@H](N5C[C@H](O)[C@@H](O)C5)C[C@]45CC[C@]3(O5)[C@@H]1CC[C@@H]2c1ccc2ccncc2c1 .
8

# get_value(readout='inhibition at 1 µM', item= C[C@]12CC=C3C=C4CC[C@@H](N5CC[C@@H](N)C5)C[C@]45CC[C@]3(O5)[C@@H]1CC[C@@H]2c1ccc2ccncc2c1 )
4.1

Form field: reported inhibition at 1 µM of C[C@]12CC=C3C=C4CC[C@@H](N5CCCC5)C[C@]45CCC3(O5)[C@@H]1CC[C@@H]2c1ccc2ccncc2c1
67.2

Fill blank: measured inhibition at 1 µM of the compound C[C@]12CC=C3C=C4CC[C@@H](N5CC(N)C5)C[C@]45CC[C@]3(O5)[C@@H]1CC[C@@H]2c1ccc2ccncc2c1 is ____.
5.8

Using the record for C[C@]12CC=C3C=C4CC[C@@H](O)C[C@]45CC[C@]3(O5)[C@@H]1CC[C@@H]2c1ccc2ccncc2c1 , report its inhibition at 1 µM.
4
